tested on: Streptococcus bovis A-5169; assay: In vitro antibacterial activity, agar dilution MIC; format: cell-based; conditions: code JJ: Streptococcus bovis A-5169; BHI agar, 35-37° C., 20 to 24 hours; unit assumed
Readings of Antibacterial Activity (MIC) for the listed compounds
Record the value in µg/mL, omitting the unit from your answer.

Worked set:
compound	Antibacterial Activity (MIC) (µg/mL)
CCC1OC(=O)C(C)C(=O)C(C)C(OC2OC(C)CC(N(C)C)C2O)C(C)(OCC=Cc2cnc3ccccc3c2)CC(C)CN(C)C(C)C(O)C1(C)O (stereo not shown) [Example 5]	0.02
C=CCOC1(C)CC(C)CNC(C)C(O)C(C)(O)C(CC)OC(=O)C(C)C(OC2CC(C)(OC)C(O)C(C)O2)C(C)C1OC1OC(C)CC(N(C)C)C1O (stereo not shown) [Example 2]	0.02
C=CCOC1(C)CC(C)CN(C)C(C)C(O)C(C)(O)C(CC)OC(=O)C(C)C(OC2CC(C)(OC)C(O)C(C)O2)C(C)C1OC1OC(C)CC(N(C)C)C1O (stereo not shown) [Example 3]	0.05

stdin: Name the reported Antibacterial Activity (MIC) value associated with the compound CCC1OC(=O)C(C)C(=O)C(C)C(OC2OC(C)CC(N(C)C)C2O)C(C)(OCC=Cc2cnc3ccccc3c2)CC(C)CN(C)C(C)C2OC(=O)OC12C (stereo not shown) [Example 6]
stdout: 0.02

stdin: Recorded Antibacterial Activity (MIC) of C=CCOC1(C)CC(C)CN(C)C(C)C(O)C(C)(O)C(CC)OC(=O)C(C)C(O)C(C)C1OC1OC(C)CC(N(C)C)C1O (stereo not shown) [Example 4] , please.
stdout: 0.02

stdin: Data request, read-out Antibacterial Activity (MIC), for CC[C@H]1OC(=O)[C@H](C)[C@@H](O[C@H]2C[C@@](C)(OC)[C@@H](O)[C@H](C)O2)[C@H](C)[C@@H](O[C@@H]2O[C@H](C)C[C@H](N(C)C)[C@H]2O)[C@](C)(O)C[C@@H](C)C(=O)[C@H](C)[C@@H](O)[C@]1(C)O [Ery. A, Erythromycin A, reference compound]
stdout: 0.02

stdin: If you can, please state the reported Antibacterial Activity (MIC) value of CCC1OC(=O)C(C)C(OC2CC(C)(OC)C(O)C(C)O2)C(C)C(OC2OC(C)CC(N(C)C)C2O)C(C)(OCC=Cc2cnc3ccccc3c2)CC(C)CN(C)C(C)C(O)C1(C)O (stereo not shown) [Example 7] .
stdout: 0.1

Reference for the values: patent US6764996B1
